Tested on: COLO 205 colon
Assay: NCI tumour cell line growth inhibition, 48 h; in the data active means GI50 below about 0.43 µM; inactive means the rest
The categories you may choose from are Y = active, N = inactive

-- ask Outcome logged for Nc1nc(-c2cccc([N+](=O)[O-])c2)c(N=Nc2ccccc2[N+](=O)[O-])s1 in this assay:
-- reply N

-- ask Outcome logged for Nc1nc(N)c2c(n1)NC(c1ccc(F)cc1)CC(c1ccc(Nc3nc(NCCO)nc(Nc4ccc(Cl)cc4)n3)cc1)=N2 (centres undefined) in this assay:
-- reply N

-- ask Outcome logged for O=S(=O)(Nc1cccc2ccccc12)c1ccc(-c2cnc(C3CC3)o2)cc1 in this assay:
-- reply Y

-- ask Outcome logged for c1ccc2c(NCCCn3ccnc3)c3oc4ccccc4c3nc2c1 in this assay:
-- reply N

====

Tested on: UACC-257 melanoma
Test: NCI tumour cell line growth inhibition, 48 h
Exercise: state measured TGI for each of the molecules provided.
Field: numeric (µM). Do not append units.

-- ask Would you mind telling me what TGI value was observed for Nc1nc(N)c2c(n1)NC(c1ccc(F)cc1)CC(c1ccc(Nc3nc(NCCO)nc(Nc4ccc(Cl)cc4)n3)cc1)=N2 (centres undefined) ?
-- reply 3.52

-- ask Would you mind telling me what TGI value was observed for COc1cc(-c2nnc(SCc3ccc(O)c4ncccc34)n2-c2ccccc2)cc(OC)c1OC ?
-- reply 3.22

-- ask Would you mind telling me what TGI value was observed for c1ccc2c(NCCCn3ccnc3)c3oc4ccccc4c3nc2c1 ?
-- reply 6

====

Tested on: 786-0 renal
Experiment: NCI tumour cell line growth inhibition, 48 h
MEASURED METRIC: TGI (µM)
Field: numeric (µM). Do not append units.

-- ask Would you mind telling me what TGI value was observed for c1ccc2c(NCCCn3ccnc3)c3oc4ccccc4c3nc2c1 ?
-- reply 13.2

-- ask Would you mind telling me what TGI value was observed for Nc1nc(-c2cccc([N+](=O)[O-])c2)c(N=Nc2ccccc2[N+](=O)[O-])s1 ?
-- reply 3.01

====

System: NCI-H522 lung
Assay: NCI tumour cell line growth inhibition, 48 h
MEASURED METRIC: TGI (µM)
Field: numeric (µM). Do not append units.

-- ask Would you mind telling me what TGI value was observed for O=S(=O)(Nc1cccc2ccccc12)c1ccc(-c2cnc(C3CC3)o2)cc1 ?
-- reply 24

-- ask Would you mind telling me what TGI value was observed for c1ccc2c(NCCCn3ccnc3)c3oc4ccccc4c3nc2c1 ?
-- reply 3.63

-- ask Would you mind telling me what TGI value was observed for Nc1nc(-c2cccc([N+](=O)[O-])c2)c(N=Nc2ccccc2[N+](=O)[O-])s1 ?
-- reply 14.4

-- ask Would you mind telling me what TGI value was observed for COc1cc(-c2nnc(SCc3ccc(O)c4ncccc34)n2-c2ccccc2)cc(OC)c1OC ?
-- reply 0.921

====

Tested on: HCT-15 colon
Test: NCI tumour cell line growth inhibition, 48 h
Exercise: state measured TGI for each of the compounds provided.
Field: numeric (µM). Do not append units.

-- ask Would you mind telling me what TGI value was observed for c1ccc2c(NCCCn3ccnc3)c3oc4ccccc4c3nc2c1 ?
-- reply 10.6

-- ask Would you mind telling me what TGI value was observed for Nc1nc(N)c2c(n1)NC(c1ccc(F)cc1)CC(c1ccc(Nc3nc(NCCO)nc(Nc4ccc(Cl)cc4)n3)cc1)=N2 (centres undefined) ?
-- reply 2.84
